Hey, just so you know, these numbers are from ChEMBL document CHEMBL1131103.

Here, each record is paired with measured EC0.01 (relative to paclitaxel) data.
Species on record: Bos taurus
Method Notes: Polymerizing activity of microtubule protein against the twice cycled microtubule protein
Assay type: functional
Property Label: EC0.01 (relative to paclitaxel)

Structure Smiles	Measured
CC(=O)O[C@H]1C(=O)[C@@]2(C)[C@H]([C@H](OC(=O)c3cc(F)cc(F)c3)[C@]3(O)C[C@H](OC(=O)[C@H](O)[C@@H](NC(=O)c4ccccc4)c4ccccc4)C(C)=C1C3(C)C)[C@]1(OC(C)=O)CO[C@@H]1C[C@@H]2O	0.6
CC(=O)O[C@H]1C(=O)[C@@]2(C)[C@H]([C@H](OC(=O)c3cccc([N+](=O)[O-])c3)[C@]3(O)C[C@H](OC(=O)[C@H](O)[C@@H](NC(=O)c4ccccc4)c4ccccc4)C(C)=C1C3(C)C)[C@]1(OC(C)=O)CO[C@@H]1C[C@@H]2O	0.69
CC(=O)O[C@H]1C(=O)[C@@]2(C)[C@H]([C@H](OC(=O)c3cc(F)c(F)c(F)c3)[C@]3(O)C[C@H](OC(=O)[C@H](O)[C@@H](NC(=O)c4ccccc4)c4ccccc4)C(C)=C1C3(C)C)[C@]1(OC(C)=O)CO[C@@H]1C[C@@H]2O	1.8
COc1cccc(C(=O)O[C@H]2[C@@H]3[C@]4(OC(C)=O)CO[C@@H]4C[C@H](O)[C@@]3(C)C(=O)[C@H](OC(C)=O)C3=C(C)[C@@H](OC(=O)[C@H](O)[C@@H](NC(=O)c4ccccc4)c4ccccc4)C[C@]2(O)C3(C)C)c1	0.5
